# system_under_test: Fructose-bisphosphate aldolase (Mycobacterium tuberculosis (strain ATCC 25618 / H37Rv))
# protocol_text: Mtb FBA enzyme inhibitors, primary screen, biochemical, fluorescence, strain H37Rv (AID 588726);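 note: 0% = vehicle and 100% = reference inhibitor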
# test_settings: purified M. tuberculosis FBA, fluorescence read-out, at 1 µM, hits give high values
Out of some 360,000 compounds screened, about 8,200 (2.3%) were called active. Shown is part of a subset that was picked to be rich in actives.
value_type: inhibition (%)
Dear colleague, please return just the value in %, with no unit written.

Lookup: Given the entry "COC(=O)COc1cc(C)cc2oc(=O)c3c(c12)CCCC3" , report its measured inhibition.
Found: 28.4

Lookup: Given the entry "Fc1ccc(/C=N/n2c(COc3ccccc3)n[nH]c2=S)cc1" , report its measured inhibition.
Found: 2.47

Lookup: Given the entry COc1ccc(C2(O)C(=O)Nc3ccccc32)cc1 (centres undefined) , report its measured inhibition.
Found: 1.93

Lookup: Given the entry "CC(C)n1ncc2c(C(=O)NCc3ccccc3CN(C)C)cc(C3CC3)nc21" , report its measured inhibition.
Found: 29.8

Lookup: Given the entry COc1ccc(CCNC(=O)C(=O)NCC2OCCN2S(=O)(=O)c2ccc(OC)c(C)c2)cc1 (centres undefined) , report its measured inhibition.
Found: -0.91

Lookup: Given the entry "Cc1ccc(CSCC(=O)N(C)CC(=O)Nc2ccc(C)cc2)cc1" , report its measured inhibition.
Found: -2.58

Lookup: Given the entry CC(=O)N1N=C(c2ccccc2)OC1c1cccnc1 (centres undefined) , report its measured inhibition.
Found: -0.2

Lookup: Given the entry "Cc1cc(OCc2cc(C(=O)O)oc2C)c2c3c(c(=O)oc2c1)CCCC3" , report its measured inhibition.
Found: 107

Lookup: Given the entry "Cc1cc(C(=O)NNC(=O)c2cccc(S(=O)(=O)N3CCOCC3)c2)c2ccccc2n1" , report its measured inhibition.
Found: -2.38

Lookup: Given the entry "CC(=O)N1C(=O)C2(Nc3ccccc3N2)c2ccccc21" , report its measured inhibition.
Found: 6.98

Lookup: Given the entry CCN(CC)CCC(c1ccc2c(c1)OCO2)c1c(OC)cc(OC)c2c(-c3ccccc3)cc(=O)oc12 (centres undefined) , report its measured inhibition.
Found: 4.6

Lookup: Given the entry CC1=CC2=NC(=O)CC(C)(C(=O)N(CC(=O)NC(C)(C)C)Cc3ccccc3)N2C=C1 (centres undefined) , report its measured inhibition.
Found: 39.1

Lookup: Given the entry "COc1ccc(CNC(=O)c2cc(=O)c3c(C)cc(C)cc3o2)cc1" , report its measured inhibition.
Found: -0.13

Lookup: Given the entry "CCOC(=O)CNc1nc2ccccc2n2c(C)nnc12" , report its measured inhibition.
Found: -1.1

Lookup: Given the entry "CN(C)CCCn1c(N)c(C#N)c2nc(C#N)c(C#N)nc21" , report its measured inhibition.
Found: 61.1

Lookup: Given the entry O=C1NC(c2ccccc2)Oc2ccccc21 (centres undefined) , report its measured inhibition.
Found: 6.04

Lookup: Given the entry "CC(=O)N1N=C(c2ccncc2)OC1(Cc1ccccc1)Cc1ccccc1" , report its measured inhibition.
Found: 46.8

Lookup: Given the entry "CC[C@@H](C)[C@H](NC(=O)CCc1c(C)c2cc3c4c(oc3c(C)c2oc1=O)CCCC4)C(=O)O" , report its measured inhibition.
Found: 27.5

Lookup: Given the entry "Cc1ccc(NC(=O)CN(C)C(=O)COC(=O)c2nccnc2N)cc1" , report its measured inhibition.
Found: 88.8

Lookup: Given the entry "CCN(CC)c1ccc(C(=O)c2cnc(/N=C/N(C)C)s2)cc1" , report its measured inhibition.
Found: -0.9

Lookup: Given the entry "COc1cccc(NC(=O)CSc2nnc(C3CCCCC3)n2N)c1" , report its measured inhibition.
Found: -1.25

Lookup: Given the entry "Cc1ccc(/C([O-])=C(/C(=S)NCc2ccco2)[n+]2ccccc2)cc1[N+](=O)[O-]" , report its measured inhibition.
Found: 1.54

Lookup: Given the entry "COc1ccc2[nH]c3nc(SCC(=O)NC4CC4)nnc3c2c1" , report its measured inhibition.
Found: -8.79

Lookup: Given the entry O=C(NCCCN1CCCC1=O)C(=O)NCC1OCCN1S(=O)(=O)c1ccc(Br)cc1 (centres undefined) , report its measured inhibition.
Found: 6.34

Lookup: Given the entry "O=C(CCc1ccccc1)Nc1cccc(-c2nnc(-c3ccco3)o2)c1" , report its measured inhibition.
Found: 26.9

Lookup: Given the entry "O=C(CSc1nnc(-c2ccco2)o1)NCC(=O)c1ccccc1" , report its measured inhibition.
Found: -1.17

Lookup: Given the entry "COc1cccc2[nH]c(C(=O)NCCc3ccccc3)cc12" , report its measured inhibition.
Found: 33.2

Lookup: Given the entry O=C(Cc1ccccc1)N1N=C(c2ccncc2)CC1(O)C(F)(F)F (centres undefined) , report its measured inhibition.
Found: -4.28

Lookup: Given the entry "COC(=O)CSc1nc(C)c2ccc(OC)cc2n1" , report its measured inhibition.
Found: 30.8

====

# system_under_test: Fructose-bisphosphate aldolase (Mycobacterium tuberculosis (strain ATCC 25618 / H37Rv))
# protocol_text: Mtb FBA enzyme inhibitors, primary screen, biochemical, fluorescence, strain H37Rv (AID 588726);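 note: 0% = vehicle and 100% = reference inhibitor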
# test_settings: purified M. tuberculosis FBA, fluorescence read-out, at 1 µM, hits give high values
Hit rate of the full screen: of about 360,000 compounds, about 8,200 (2.3%) were called active. What follows is part of a selection rich in actives, with near analogues and random picks from the rest.
value_type: inhibition

Lookup: Given the entry "C=C(C)Cn1c(C)cc(C)c(S(=O)(=O)c2ccccc2C)c1=O" , report its measured inhibition.
Found: -0.53% (inactive)

Lookup: Given the entry "COc1ccc(-c2ccc(CCC(=O)O)n2NC(=O)c2ccc(C(C)(C)C)cc2)cc1" , report its measured inhibition.
Found: 3.01% (inactive)

Lookup: Given the entry "CCOC(=O)CN(C(=O)COc1nc(C)cc(C)c1C#N)c1ccc(Cl)cc1" , report its measured inhibition.
Found: 0.17% (inactive)

Lookup: Given the entry "CCCc1cc(=O)oc2c(C)c(OCC(=O)N3CCC(C(=O)O)CC3)ccc12" , report its measured inhibition.
Found: 44.1% (active)

====

# system_under_test: Fructose-bisphosphate aldolase (Mycobacterium tuberculosis (strain ATCC 25618 / H37Rv)) (UniProt P9WQA3)
# Sequence (P9WQA3 whole entry, looked up): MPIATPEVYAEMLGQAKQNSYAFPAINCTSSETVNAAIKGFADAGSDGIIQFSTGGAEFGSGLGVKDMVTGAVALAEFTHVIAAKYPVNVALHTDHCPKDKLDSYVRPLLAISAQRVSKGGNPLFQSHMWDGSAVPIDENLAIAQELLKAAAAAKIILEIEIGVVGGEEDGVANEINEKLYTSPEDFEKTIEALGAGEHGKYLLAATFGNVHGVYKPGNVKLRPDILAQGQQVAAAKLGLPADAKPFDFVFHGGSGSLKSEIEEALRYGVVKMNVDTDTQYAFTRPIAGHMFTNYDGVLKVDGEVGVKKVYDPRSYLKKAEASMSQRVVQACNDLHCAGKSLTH
# protocol_text: Mtb FBA enzyme inhibitors, primary screen, biochemical, fluorescence, strain H37Rv (AID 588726);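 note: 0% = vehicle and 100% = reference inhibitor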
# test_settings: purified M. tuberculosis FBA, fluorescence read-out, at 1 µM, hits give high values
In all, about 360,000 compounds went through this assay and about 8,200 (2.3%) were called active. This is one part of a sample in which actives are shown more often than they occur.
value_type: inhibition (%)
Dear colleague, please return just the value in %, with no unit written.

Lookup: Given the entry "Clc1ccc(CSc2nnc([C@@H]3CCCN3)o2)cc1" , report its measured inhibition.
Found: 4.22

Lookup: Given the entry "COc1ccc(OC)c(S(=O)(=O)Nc2ccccc2F)c1" , report its measured inhibition.
Found: -2.78

Lookup: Given the entry "COc1cc2sc(C)nc2cc1C" , report its measured inhibition.
Found: 4.23

Lookup: Given the entry "O=C(O)CSc1ccc(S(=O)(=O)N2CCCC2)cn1" , report its measured inhibition.
Found: -0.83

Lookup: Given the entry CC(C)CN(C(=O)CSc1ncnc2sccc12)C1CCS(=O)(=O)C1 (stereo not drawn) , report its measured inhibition.
Found: 2.25

Lookup: Given the entry "CCOc1ccc2c(=O)c(-c3ccc4c(c3)OCCCO4)c(C)oc2c1" , report its measured inhibition.
Found: -0.24

Lookup: Given the entry "O=C(Cc1ccc(F)cc1)NC1CCCC1" , report its measured inhibition.
Found: -0.93

Lookup: Given the entry Cc1ccccc1CN1CCNC(=O)C1CC(=O)NCCC1=CCCCC1 (stereo not drawn) , report its measured inhibition.
Found: 2.98

Lookup: Given the entry "Cc1cccc2c1-c1sc(C(=O)NCCCN3CCc4ccccc4C3)cc1CO2" , report its measured inhibition.
Found: 90.4

Lookup: Given the entry COc1ccc(CC(NC(C)=O)C(=O)N2CCN(C(=O)Nc3cccc(Cl)c3)CC2)cc1OC (stereo not drawn) , report its measured inhibition.
Found: 1.24

Lookup: Given the entry "Fc1ccc(-c2nnc(CSc3nnc(-c4ccc5c(c4)OCO5)o3)o2)cc1" , report its measured inhibition.
Found: -2.07

Lookup: Given the entry "COCCn1c(=O)[nH]c2cc(C(=O)NCc3cccnc3)ccc2c1=O" , report its measured inhibition.
Found: 12.2

Lookup: Given the entry "C#CCNC(=O)C1=C[C@@H](c2ccccc2)[C@H](CCCO)[C@@H](OCC)O1" , report its measured inhibition.
Found: 0.54

Lookup: Given the entry "Cc1nc(-c2ccccc2)cn2c1nc1ccccc12" , report its measured inhibition.
Found: 119

Lookup: Given the entry "C#CCSc1nnc(-c2sc3ccccc3c2Cl)o1" , report its measured inhibition.
Found: 4.19

Lookup: Given the entry "COc1ccc(NC(=O)CSc2ncnc3[nH]ncc23)cc1" , report its measured inhibition.
Found: 1.84

Lookup: Given the entry CC1CCCC(NC(=O)COC(=O)[C@@H]2CC(O)CN2S(=O)(=O)c2ccc3c(c2)OCCO3)C1C (stereo partly drawn) , report its measured inhibition.
Found: 0.53

Lookup: Given the entry CCN(C(=O)CSc1ncnc2c1cnn2-c1ccccc1)C1CCS(=O)(=O)C1 (stereo not drawn) , report its measured inhibition.
Found: 32.7

Lookup: Given the entry "Cc1ccc(-c2nc(COC(=O)c3c(C)noc3C)cs2)cc1" , report its measured inhibition.
Found: 1.63

Lookup: Given the entry "COC(=O)c1ccc(C)c(NC(=O)Cn2c(C)csc2=O)c1" , report its measured inhibition.
Found: -1.21

Lookup: Given the entry "CN(C)/C(CN1CCCCC1)=C1\N=C(c2ccccc2)OC1=O" , report its measured inhibition.
Found: -2.21

Lookup: Given the entry "Cc1c(C(=O)Nc2cccc(Cl)c2)cn2c(nc3ccccc32)c1C#N" , report its measured inhibition.
Found: -0.2

Lookup: Given the entry "CCCc1cc(=S)n2c([nH]c3ccccc32)c1C#N" , report its measured inhibition.
Found: 14.3

Lookup: Given the entry "Cc1ccc(NC(=O)CN2CCc3ccccc3C2)cc1C" , report its measured inhibition.
Found: 0.22

Lookup: Given the entry CC(C)CN(C(=O)c1ccc2c(c1)OCO2)C1CCS(=O)(=O)C1 (stereo not drawn) , report its measured inhibition.
Found: -0.95

Lookup: Given the entry "COc1cccc(NS(=O)(=O)c2ccc(-c3coc(C)n3)cc2)c1" , report its measured inhibition.
Found: -2.5

Lookup: Given the entry "Nc1cccc(-c2cc(-c3ccccc3)nc(-c3cccc(N)c3)n2)c1" , report its measured inhibition.
Found: 16.1

Lookup: Given the entry "O=C(CSc1nnc(-c2ccccc2O)o1)NC1CCCCC1" , report its measured inhibition.
Found: 0.67

Lookup: Given the entry CCCN(CCC)CC(O)COc1ccccc1C(=O)Nc1ccccc1 (stereo not drawn) , report its measured inhibition.
Found: 0.32

Lookup: Given the entry CCc1nc2ccccc2c(C(=O)OC2CCCCC2=O)c1C (stereo not drawn) , report its measured inhibition.
Found: 0.09

Lookup: Given the entry "CSc1ccc(CN2C(=O)NC3(CCCCCC3)C2=O)cc1" , report its measured inhibition.
Found: 6.55

Lookup: Given the entry "CCC(C)(C)NC(=O)CN(C(=O)CCC(=O)Nc1cc(C)ccn1)c1ccc2c(c1)OCCO2" , report its measured inhibition.
Found: -0.12

Lookup: Given the entry "COc1cc(/C=C/C(=O)O)cc(S(=O)(=O)Nc2ccccc2C(=O)NCCc2ccccc2)c1OC" , report its measured inhibition.
Found: 0.65

Lookup: Given the entry "O=C(CSc1ncnc2c1oc1ccccc12)NC1CCCC1" , report its measured inhibition.
Found: -1.09

Lookup: Given the entry "N/C(=N\OC(=O)CCn1cccc(C(F)(F)F)c1=O)c1ccc(OC(F)(F)F)cc1" , report its measured inhibition.
Found: 1.82

Lookup: Given the entry "Cc1noc(C)c1C(=O)OCC(=O)N1CCN(S(=O)(=O)c2ccc3ccccc3c2)CC1" , report its measured inhibition.
Found: 3.46

Lookup: Given the entry CC(C)c1ccc(N(C(=O)c2ccco2)C(C(=O)NC2CCCC2)c2cccnc2)cc1 (stereo not drawn) , report its measured inhibition.
Found: -3.97

Lookup: Given the entry CCOC(=O)CSc1nnc(NC(=O)C2CC(=O)N(c3ccc(F)cc3)C2)s1 (stereo not drawn) , report its measured inhibition.
Found: -1.95

Lookup: Given the entry COc1cccc(NC(=O)C2(C)CCN2Cc2ccccc2Cl)c1 (stereo not drawn) , report its measured inhibition.
Found: 3.88

Lookup: Given the entry "N#C[C@]1(S(=O)(=O)c2ccccc2)C[C@@H]2ON=C(c3cccc(Br)c3)[C@@H]2C1" , report its measured inhibition.
Found: 2.3

Lookup: Given the entry "Cc1ccc(C)c(NC(=O)c2ccc(OC(=O)c3ccco3)cc2)c1" , report its measured inhibition.
Found: 3.01

Lookup: Given the entry "COc1ccc(OC)c(NC(=O)Cn2c(=O)oc3ccccc32)c1" , report its measured inhibition.
Found: -2.86

Lookup: Given the entry "COc1ccc(-c2ccc3c(c2)[C@@H]2C[C@H](N(C)S(=O)(=O)c4ccccc4)[C@H]([C@H](C)O)C(=O)N2CC3)cc1" , report its measured inhibition.
Found: 4.15
